src = patent US12673975B2

biological target: human integrin αvβ5 (Homo sapiens, UniProt P06756+P18084); test: Evaluation of integrin binding property (surface plasmon resonance, Biacore 3000, immobilized cyclic peptide); conditions: SPR, 25° C., HEPES buffer with 5 mM magnesium chloride, integrin 30-1,000 nM; read-out: Performance evaluation: Binding activity (dissociation constant between the cyclic peptide and human integrin αvβ5)
Sequence (P06756 31-1048): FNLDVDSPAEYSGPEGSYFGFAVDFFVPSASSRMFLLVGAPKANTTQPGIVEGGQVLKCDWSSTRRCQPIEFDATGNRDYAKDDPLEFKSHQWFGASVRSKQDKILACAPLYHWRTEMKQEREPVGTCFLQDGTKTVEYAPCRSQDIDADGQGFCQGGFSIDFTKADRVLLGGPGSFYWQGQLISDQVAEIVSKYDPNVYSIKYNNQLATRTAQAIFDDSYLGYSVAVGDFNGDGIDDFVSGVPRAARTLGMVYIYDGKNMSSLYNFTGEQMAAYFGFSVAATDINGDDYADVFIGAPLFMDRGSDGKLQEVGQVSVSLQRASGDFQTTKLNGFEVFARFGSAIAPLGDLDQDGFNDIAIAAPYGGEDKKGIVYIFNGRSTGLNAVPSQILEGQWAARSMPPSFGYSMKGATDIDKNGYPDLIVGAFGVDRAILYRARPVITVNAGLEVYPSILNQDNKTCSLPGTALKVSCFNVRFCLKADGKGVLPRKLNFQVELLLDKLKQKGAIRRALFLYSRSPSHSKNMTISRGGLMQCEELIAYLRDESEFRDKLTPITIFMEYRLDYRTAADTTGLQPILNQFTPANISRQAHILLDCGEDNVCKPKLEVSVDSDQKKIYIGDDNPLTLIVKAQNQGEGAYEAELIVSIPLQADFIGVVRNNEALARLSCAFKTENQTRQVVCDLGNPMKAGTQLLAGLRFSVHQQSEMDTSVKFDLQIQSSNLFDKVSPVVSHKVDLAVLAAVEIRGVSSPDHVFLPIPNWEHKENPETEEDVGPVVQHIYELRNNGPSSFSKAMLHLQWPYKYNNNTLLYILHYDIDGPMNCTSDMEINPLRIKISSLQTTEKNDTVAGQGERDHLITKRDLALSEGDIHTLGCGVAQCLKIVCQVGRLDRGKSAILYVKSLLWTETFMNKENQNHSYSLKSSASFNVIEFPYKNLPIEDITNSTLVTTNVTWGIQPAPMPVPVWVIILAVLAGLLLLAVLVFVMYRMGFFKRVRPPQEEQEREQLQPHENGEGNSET
Sequence (P18084 24-799): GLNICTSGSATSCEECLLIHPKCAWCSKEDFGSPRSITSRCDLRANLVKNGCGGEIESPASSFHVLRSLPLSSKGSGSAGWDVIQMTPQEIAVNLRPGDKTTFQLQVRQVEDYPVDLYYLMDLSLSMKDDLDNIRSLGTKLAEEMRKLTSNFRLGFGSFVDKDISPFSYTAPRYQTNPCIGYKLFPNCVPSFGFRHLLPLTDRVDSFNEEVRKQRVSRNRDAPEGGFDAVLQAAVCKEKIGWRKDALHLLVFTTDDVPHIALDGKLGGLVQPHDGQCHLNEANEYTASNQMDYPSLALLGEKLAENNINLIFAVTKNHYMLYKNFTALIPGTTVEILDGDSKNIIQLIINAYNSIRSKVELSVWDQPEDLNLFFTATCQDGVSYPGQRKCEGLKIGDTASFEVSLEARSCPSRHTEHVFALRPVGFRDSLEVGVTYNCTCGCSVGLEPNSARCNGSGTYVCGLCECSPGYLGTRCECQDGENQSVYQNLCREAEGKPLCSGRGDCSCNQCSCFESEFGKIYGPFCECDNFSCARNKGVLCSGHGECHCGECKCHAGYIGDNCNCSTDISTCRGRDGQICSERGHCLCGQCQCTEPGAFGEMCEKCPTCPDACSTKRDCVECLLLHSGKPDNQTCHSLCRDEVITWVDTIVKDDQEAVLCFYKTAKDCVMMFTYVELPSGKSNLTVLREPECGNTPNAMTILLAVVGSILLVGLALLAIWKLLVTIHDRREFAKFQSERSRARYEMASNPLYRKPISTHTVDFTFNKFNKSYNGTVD
Description: […]
pKd: −log10 of the molar value. Starred links: 1 amine or outer side, 2 acyl side, 3 side chain; linkers in the order of their positions; H or OH if unused. Positions of bridges follow the written chain, without caps; N, C: chain ends. Non-standard residues stand in square brackets, D forms with d. Residues, ends and D or L forms follow the SMILES beside them. hCys = N[C@@H](CCS)C(=O)O; Dab = NCC[C@H](N)C(=O)O; X2 = O=C(C[*:1])[*:2]
property_measured: pKd

compound	result
C[C@H](NC(=O)[C@@H]1CCNC(=O)CSCC[C@H](NC(=O)CNC(=O)[C@H](CCCCN)NC(=O)[C@H](CCCCN)NC(=O)[C@@H](N)CCCCN)C(=O)N2CCC[C@H]2C(=O)N[C@@H](CCCNC(=N)N)C(=O)NCC(=O)N[C@@H](CC(=O)O)C(=O)N[C@@H](CC(N)=O)C(=O)N[C@@H](Cc2ccccc2)C(=O)N[C@@H](CCCNC(=N)N)C(=O)N1)C(=O)O [Cyclic peptide 8, KKKG-(Hcy)-PRGDNFR(Dab(acetyl))A] (H-KKKG[hCys]PRGDNFR[Dab]A-OH; linker 5-13 via X2)	7.00 to 7.30
CC[C@H](C)[C@@H]1NC(=O)[C@@H](NC(=O)CNC(=O)[C@H](CCCCN)NC(=O)[C@H](CCCCN)NC(=O)[C@@H](N)CCCCN)CCSCC(=O)NCC[C@@H](C(=O)N[C@@H](C)C(=O)O)NC(=O)[C@H](CCCNC(=N)N)NC(=O)[C@H](Cc2ccccc2)NC(=O)[C@H]([C@@H](C)O)NC(=O)[C@H](CC(=O)O)NC(=O)CNC(=O)[C@H](CCCNC(=N)N)NC(=O)[C@@H]2CCCN2C1=O [Cyclic peptide 54, KKKG-(Hcy)-IPRGDTFR(Dab(acetyl))A] (H-KKKG[hCys]IPRGDTFR[Dab]A-OH; linker 5-14 via X2)	> 7.30
